Protein target, amino acids: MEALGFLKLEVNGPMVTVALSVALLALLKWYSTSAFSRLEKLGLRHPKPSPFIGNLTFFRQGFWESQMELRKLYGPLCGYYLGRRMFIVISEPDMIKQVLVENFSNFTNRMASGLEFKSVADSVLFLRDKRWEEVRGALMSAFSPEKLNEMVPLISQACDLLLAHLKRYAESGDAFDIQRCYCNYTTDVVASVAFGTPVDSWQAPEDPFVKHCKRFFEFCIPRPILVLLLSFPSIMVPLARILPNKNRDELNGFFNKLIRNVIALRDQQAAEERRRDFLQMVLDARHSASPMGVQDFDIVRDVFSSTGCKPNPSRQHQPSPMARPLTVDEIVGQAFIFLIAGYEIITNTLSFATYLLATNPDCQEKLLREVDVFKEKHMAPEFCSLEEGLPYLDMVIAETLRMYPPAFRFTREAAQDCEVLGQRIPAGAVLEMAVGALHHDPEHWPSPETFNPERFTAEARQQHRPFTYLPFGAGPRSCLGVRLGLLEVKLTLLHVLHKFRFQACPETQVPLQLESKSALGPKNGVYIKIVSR
the protein given by its sequence IC50, compiled from various sources.
// note: answer is a bare numeric in nM

Data request, read-out IC50, for O=C(O)CC/C=C\CC[C@@H]1[C@@H](c2cccnc2)SC[C@H]1OCc1ccc(-c2ccccc2)cc1 (stereo in doubt; (+)) 18

Given the compound Cc1ccc(OC(C)(C)[C@H]2OC[C@@H](C/C=C\CCC(=O)O)[C@@H](c3cncs3)O2)c([N+](=O)[O-])c1 , what is its reported IC50? 18

Could you share which IC50 value was measured for O=C(O)CCn1cc(Cn2ccnc2)c2cc(Cl)ccc21 ? 21

---

Compiled IC50 measurements on Thromboxane-A synthase (Homo sapiens) taken from the literature.

Here is how some compounds turned out for IC50.
CCOC(=O)COc1ccc(OCCn2ccnc2)cc1
610 nM
Cc1c(C(=O)O)sc2cc(Cn3ccnc3)ccc12
5.2 nM
Cc1c(Cn2ccnc2)c2cc(CCC(=O)O)ccc2n1CCNS(=O)(=O)c1ccc(F)cc1
39 nM
O=C(O)CCCCCC(CNS(=O)(=O)c1ccccc1)c1cccnc1 (stereo in doubt; 25)
> 10000 nM
Cc1c(CC(C)(C)C(=O)O)n(Cc2ccc(Cl)cc2)c2ccc(-c3ccc(-c4ccccc4)c(F)c3)cc12
1400 nM

Returns the measured IC50 for the input compound. Input: O=C(O)c1ccc2sc(Cn3ccnc3)c(Cl)c2c1 22 nM

If you can, please state the reported IC50 value of CC(C)c1c(Cn2ccnc2)c2ccccc2n1CCC(=O)O . 8.2 nM

---

Literature roundup of UniProt P24557 data, read-out IC50.
Quick rule for you: IC50 under 20 nM gets criterion met, anything else gets criterion not met.

O=C(O)CCCCO/N=C(\c1ccccc1)c1cnccn1
criterion not met
O=C(O)CCCCO/N=C(/c1ccccc1)c1cccnn1
criterion not met
CC(=O)Nc1ccc(OCCn2ccnc2)cc1
criterion not met

In the record for O=C(O)CCC/C=C(\c1ccc(CCN(CC(=O)O)S(=O)(=O)c2ccc(Cl)cc2)cc1)c1cccnc1 , is IC50 less than 20 nM? criterion not met

Identify whether the compound O=C(O)c1ccc(OCCCn2ccnc2)cc1 records IC50 below 20 nM. criterion not met

Just wondering, is IC50 of O=C(O)CCC/C=C(/c1cccnc1)c1cccc(CNS(=O)(=O)c2ccc(Cl)cc2)c1 below 20 nM? criterion met

Input O=C(O)c1csc2cc(Cn3ccnc3)ccc12 ; condition: IC50 strictly below 20 nM. Does it hold? criterion met

Could you please tell me whether IC50 recorded for O=C(O)CC/C=C\C[C@@H]1CO[C@H](c2cccc(OCCOc3cc(C(=O)O)ccc3OCCn3ccnc3)c2)O[C@@H]1c1ccccc1O is less than 20 nM? criterion not met

Strictly below 20 nM in IC50? O=C(O)CCCCCC(CNS(=O)(=O)c1ccc(Cl)cc1)c1cccnc1 (stereo not given) criterion not met

Item CN(CCc1ccc(/C(=C\CCCC(=O)O)c2cccnc2)cc1)S(=O)(=O)c1ccc(Cl)cc1 : IC50 beneath 20 nM, strictly? criterion met

---

Target protein (sequence): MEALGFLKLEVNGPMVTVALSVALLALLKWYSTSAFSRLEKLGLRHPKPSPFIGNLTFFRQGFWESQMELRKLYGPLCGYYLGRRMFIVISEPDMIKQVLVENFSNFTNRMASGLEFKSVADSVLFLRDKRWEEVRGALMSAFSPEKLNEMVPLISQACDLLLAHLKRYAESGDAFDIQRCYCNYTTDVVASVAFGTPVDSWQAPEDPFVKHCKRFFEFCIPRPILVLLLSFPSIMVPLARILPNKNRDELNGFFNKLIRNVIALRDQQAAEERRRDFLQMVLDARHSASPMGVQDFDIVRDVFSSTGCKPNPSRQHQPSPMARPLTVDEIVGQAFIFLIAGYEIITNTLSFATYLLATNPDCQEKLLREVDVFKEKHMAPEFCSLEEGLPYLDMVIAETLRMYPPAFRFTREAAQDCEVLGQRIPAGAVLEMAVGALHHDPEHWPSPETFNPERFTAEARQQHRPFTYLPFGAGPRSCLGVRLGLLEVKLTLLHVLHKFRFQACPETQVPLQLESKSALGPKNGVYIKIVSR
Record set: pIC50 | the protein given by its sequence | literature, multiple sources.
The scale used: pIC50 is minus the common logarithm of the concentration in molar units.

Worked cases, pIC50 given:
O=C(O)CCc1cc(CCNS(=O)(=O)c2ccc(Cl)cc2)ccc1CCc1cccnc1
7.82
O=C(O)CCCC/C=C(\c1ccc(-c2nc(C(=O)NCCOCC3CCCCC3)co2)cc1)c1cccnc1
7.44
Cc1c(Cn2ccnc2)[nH]c2ccc(C(=O)O)cc12
7.43
O=C(O)CCCCO/N=C(\c1cccc(C(F)(F)F)c1)c1cnccn1
8.22
O=C(O)CCc1cc(CCNS(=O)(=O)N2CCCCC2)cc(Cc2cccnc2)c1
7.37

Form: Entry = O=C(O)c1cc2ccc(Cn3ccnc3)cc2[nH]1 | System = the protein given by its sequence | pIC50 = ____ 7.48

---

Kindly find below log10(IC50) information for Thromboxane-A synthase (Homo sapiens) taken from the literature.
- Target or system: Thromboxane-A synthase (Homo sapiens)
- Sequence (P24557 whole entry): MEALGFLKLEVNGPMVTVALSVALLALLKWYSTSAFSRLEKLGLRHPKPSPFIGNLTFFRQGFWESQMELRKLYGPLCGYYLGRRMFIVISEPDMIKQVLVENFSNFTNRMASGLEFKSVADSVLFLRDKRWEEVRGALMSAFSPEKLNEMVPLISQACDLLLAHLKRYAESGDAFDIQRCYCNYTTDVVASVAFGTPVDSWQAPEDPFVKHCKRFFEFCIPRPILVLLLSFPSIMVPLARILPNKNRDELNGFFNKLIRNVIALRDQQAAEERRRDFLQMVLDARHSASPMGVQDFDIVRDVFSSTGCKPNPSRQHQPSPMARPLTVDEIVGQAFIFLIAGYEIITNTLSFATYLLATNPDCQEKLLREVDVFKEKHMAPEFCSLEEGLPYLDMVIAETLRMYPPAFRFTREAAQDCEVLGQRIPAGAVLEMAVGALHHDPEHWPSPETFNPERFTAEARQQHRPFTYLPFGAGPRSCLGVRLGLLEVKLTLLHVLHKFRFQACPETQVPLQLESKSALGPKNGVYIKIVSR
A value of 2 here means IC50 of 100 in nM, since values are log10.

CCCS(=O)(=O)NCCc1cc(CCC(=O)O)cc(Cc2cccnc2)c1
1.46
O=C(O)c1ccc2oc(Cn3ccnc3)c(Cl)c2c1
1.49
O=C(O)c1cc2cc(Cn3ccnc3)ccc2[nH]1
0.70
CN(C)c1ccc2c(c1)c(Cn1ccnc1)cn2CCC(=O)O
1.91

With those in mind, consider the next compound.
Returns the measured log10(IC50) for the input compound. Input: O=C(O)c1ccc2sc(Cn3ccnc3)c(Br)c2c1 1.43

---

From various publications: IC50 for Thromboxane-A synthase (Homo sapiens, UniProt P24557).
- Target or system: Thromboxane-A synthase (Homo sapiens, UniProt P24557)
- Sequence (P24557 whole entry): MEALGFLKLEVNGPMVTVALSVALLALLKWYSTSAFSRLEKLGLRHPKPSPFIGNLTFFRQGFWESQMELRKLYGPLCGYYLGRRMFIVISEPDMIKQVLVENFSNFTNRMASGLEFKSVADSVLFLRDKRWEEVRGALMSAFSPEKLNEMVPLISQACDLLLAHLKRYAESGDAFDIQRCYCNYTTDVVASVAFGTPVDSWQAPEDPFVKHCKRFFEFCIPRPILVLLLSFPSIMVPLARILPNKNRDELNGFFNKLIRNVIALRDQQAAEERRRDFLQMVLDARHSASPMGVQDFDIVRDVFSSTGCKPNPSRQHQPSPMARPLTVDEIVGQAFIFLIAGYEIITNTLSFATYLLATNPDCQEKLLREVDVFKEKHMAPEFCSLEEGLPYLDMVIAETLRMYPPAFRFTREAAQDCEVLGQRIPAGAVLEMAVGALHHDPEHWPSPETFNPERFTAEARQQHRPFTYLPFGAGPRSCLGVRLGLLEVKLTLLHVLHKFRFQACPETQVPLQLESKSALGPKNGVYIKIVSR
// classify(record): look up IC50 in ranges A: < 40 nM; B: ≥ 40 nM and < 60 nM; C: ≥ 60 nM

O=C(O)CCCCO/N=C(\c1ccccc1)c1ncccn1
C
O=C(O)CCCCO/N=C(\c1ccccc1)c1cccnn1
C
O=C(O)CC(CCCCNS(=O)(=O)c1ccc(Cl)cc1)CCCc1cccnc1 (centres undefined)
A
O=C(O)c1cccc2cc(Cn3ccnc3)ccc12
C
O=C(O)c1cc2c(O)cc(Cn3ccnc3)cc2s1
B
c1cn(CCOc2ccc(-c3nnn[nH]3)cc2)cn1
A

Shift focus to the following entry.
Category of Cc1ccccc1S(=O)(=O)NCC(CCCCCC(=O)O)c1cccnc1 (centres undefined) : C
